# target or test system: Angiotensin-converting enzyme (Oryctolagus cuniculus)
# Sequence (P12822 whole entry): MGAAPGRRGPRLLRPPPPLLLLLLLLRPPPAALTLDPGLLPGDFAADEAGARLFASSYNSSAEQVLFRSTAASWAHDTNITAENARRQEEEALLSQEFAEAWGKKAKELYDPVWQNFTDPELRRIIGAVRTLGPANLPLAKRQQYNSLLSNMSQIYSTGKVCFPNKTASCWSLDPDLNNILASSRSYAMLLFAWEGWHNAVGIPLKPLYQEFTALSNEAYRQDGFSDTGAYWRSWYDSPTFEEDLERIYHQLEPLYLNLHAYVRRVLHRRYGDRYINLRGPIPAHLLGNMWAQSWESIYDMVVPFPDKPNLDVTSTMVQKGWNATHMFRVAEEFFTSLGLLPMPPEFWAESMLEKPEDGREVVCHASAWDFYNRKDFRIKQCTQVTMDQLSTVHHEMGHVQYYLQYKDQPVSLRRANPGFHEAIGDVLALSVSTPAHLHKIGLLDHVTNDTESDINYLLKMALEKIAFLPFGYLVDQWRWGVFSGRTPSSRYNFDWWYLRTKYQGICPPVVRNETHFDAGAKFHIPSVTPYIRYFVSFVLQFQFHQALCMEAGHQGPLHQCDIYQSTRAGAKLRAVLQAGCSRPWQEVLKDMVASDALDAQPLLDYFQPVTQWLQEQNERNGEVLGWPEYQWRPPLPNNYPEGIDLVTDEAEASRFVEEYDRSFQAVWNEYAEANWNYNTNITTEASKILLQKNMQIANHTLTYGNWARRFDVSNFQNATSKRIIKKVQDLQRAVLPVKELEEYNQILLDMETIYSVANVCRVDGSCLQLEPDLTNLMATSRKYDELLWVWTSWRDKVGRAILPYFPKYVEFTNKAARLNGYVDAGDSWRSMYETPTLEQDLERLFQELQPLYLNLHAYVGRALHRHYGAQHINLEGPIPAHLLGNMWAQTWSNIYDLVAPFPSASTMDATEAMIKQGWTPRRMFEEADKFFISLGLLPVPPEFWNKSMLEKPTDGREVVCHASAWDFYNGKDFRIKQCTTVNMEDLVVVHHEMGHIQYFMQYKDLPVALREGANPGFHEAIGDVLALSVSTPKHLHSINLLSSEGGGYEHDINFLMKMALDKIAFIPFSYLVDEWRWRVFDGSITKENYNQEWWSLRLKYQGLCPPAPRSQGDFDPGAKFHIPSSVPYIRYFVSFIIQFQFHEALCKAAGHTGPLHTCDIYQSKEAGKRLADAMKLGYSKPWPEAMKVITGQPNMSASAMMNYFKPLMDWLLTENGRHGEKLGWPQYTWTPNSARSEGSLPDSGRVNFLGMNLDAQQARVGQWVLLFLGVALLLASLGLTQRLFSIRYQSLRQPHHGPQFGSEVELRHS
readout kind: IC50 (µM)

Q) For COc1ccc(C2CC(c3cc(OC)c(OC)c(OC)c3)=NN2C)cc1O (centres undefined) , what is its reported IC50?
A) 762

Q) Field request: IC50 | item: O=c1cc(-c2ccc(O)c(O)c2)oc2cc(O[C@@H]3O[C@H](CO)[C@@H](O)[C@H](O)[C@H]3O)cc(O)c12
A) 280

Q) Need IC50, item O=C(O)[C@H]1O[C@@H](Oc2c(-c3ccc(O)c(O)c3)oc3cc(O)cc(O)c3c2=O)[C@H](O)[C@@H](O)[C@@H]1O [QUERCETIN GLUCURONIDE]
A) 200

Q) Any idea what its IC50 is? The compound is COc1cc(C2=NN(C)C(c3ccccc3)C2)cc(OC)c1OC (centres undefined)
A) 805

Q) Fill in: IC50 of COc1cc(C(=O)/C=C/c2ccc([N+](=O)[O-])c(O)c2)cc(OC)c1OC is ___
A) 552

(A) COc1ccc(C2CC(c3cc(OC)c(OC)c(OC)c3)=NN2C)cc1F (centres undefined)
(B) COc1ccc(/C=C/C(=O)c2cc(OC)c(OC)c(OC)c2)cc1[N+](=O)[O-]
(C) O=c1c(O[C@@H]2O[C@H](CO)[C@H](O)[C@H](O)[C@H]2O)c(-c2ccc(O)cc2)oc2cc(O)cc(O)c12
Q) // ranking: key=IC50, reverse=True Reply with the item labels sorted in the order that was asked for.
A) A, B, C
(A: 770 µM, B: 516 µM, C: 260 µM)
